Test system Promotilin (Homo sapiens, UniProt P12872), Ki listed for each of the substances.
# unit: nM | format: bare number

>>> measured_result("H-FVPIFTYGELQALQ-NH2 [[ala12,leu13]pMOT(1-14)]")
6.31
>>> measured_result("H-FVPIFTYGELQ-NH2 [[leu13]pMOT(1-11)]")
89.1
>>> measured_result("H-FVPIFTYGELQRLA-NH2 [[ala14,leu13]pMOT(1-14)]")
7.08

What measured Ki is associated with H-FVPIFTYGELQRAQ-NH2 [[ala13,leu13]pMOT(1-14)] on Promotilin (Homo sapiens, UniProt P12872)?
7.24
